# EXPERIMENTAL DETAILS: physchem
# Type: physicochemical
# CONDITION PARAMETERS: 0.1% sodium bisulfite in WFI, 25 °C, aqueous buffer, thermodynamic from solid; solvent 0.1% sodium bisulfite (Na Bis) in WFI; pH 7.22 (titer/NaOH); precipitated during titration
Structures can show the parent of a compound that is named as a salt. Non-standard residues stand in square brackets, D forms with d. Residues, ends and D or L forms follow the SMILES beside them. Dopa = N[C@@H](Cc1ccc(O)c(O)c1)C(=O)O
RECORDED ENDPOINT: solubility

Quick one: solubility of N[C@@H](Cc1ccc(O)c(O)c1)C(=O)N[C@@H](Cc1ccc(O)cc1)C(=O)O [LD-Tyr TFA salt, Levodopa Tyrosine TFA Salt] (H-[Dopa]-Tyr-OH) ?
≤ 205 mg/mL

---

# EXPERIMENTAL DETAILS: In-vitro metabolism of LDAA compounds using liver microsomes
# Type: in vitro ADME, human
# CONDITION PARAMETERS: incubation time 30 minutes; 1.0E−07M
Where a name gives a salt, the structure may show the parent alone. Non-standard residues stand in square brackets, D forms with d. Residues, ends and D or L forms follow the SMILES beside them. Dopa = N[C@@H](Cc1ccc(O)c(O)c1)C(=O)O
RECORDED ENDPOINT: % Compound Remaining Mean (%)
Use % as the unit, but write only the number.

Observe how each entry below is paired with its result.
N[C@@H](Cc1ccc(O)c(O)c1)C(=O)O [LD (control), L-3,4-dihydroxyphenylalanine, reference compound]	91
N[C@@H](Cc1ccc(O)c(O)c1)C(=O)N[C@@H](Cc1ccc(O)cc1)C(=O)O [LD-Tyr TFA salt, Levodopa Tyrosine TFA Salt] (H-[Dopa]-Tyr-OH)	106
N[C@@H](CSC[C@@H](NC(=O)[C@@H](N)Cc1ccc(O)c(O)c1)C(=O)O)C(=O)O (single isomer, unassigned; peak 1) [LD-LA1 TFA salt, Levodopa Lanthionine Peak 1 TFA Salt]	78
NC(=O)C[C@H](NC(=O)[C@@H](N)Cc1ccc(O)c(O)c1)C(=O)O [LD-Asn TFA salt, Levodopa Asparagine TFA Salt] (H-[Dopa]-Asn-OH)	84
NC(=O)CC[C@H](NC(=O)[C@@H](N)Cc1ccc(O)c(O)c1)C(=O)O [LD-Gln TFA salt, Levodopa Glutamine TFA Salt] (H-[Dopa]-Gln-OH)	68

Quick one: % Compound Remaining Mean of NCCCC[C@H](NC(=O)[C@@H](N)Cc1ccc(O)c(O)c1)C(=O)O [LD-Lys TFA salt, Levodopa Lysine TFA Salt] (H-[Dopa]-Lys-OH) ?
74

Quick one: % Compound Remaining Mean of N=C(N)NCCC[C@H](NC(=O)[C@@H](N)Cc1ccc(O)c(O)c1)C(=O)O [LD-Arg TFA salt, Levodopa Arginine TFA Salt] ?
88

Quick one: % Compound Remaining Mean of N[C@@H](Cc1ccc(O)c(O)c1)C(=O)N[C@@H](Cc1c[nH]c2ccccc12)C(=O)O [LD-Trp TFA salt, Levodopa Tryptophan] (H-[Dopa]-Trp-OH) ?
104

Quick one: % Compound Remaining Mean of N[C@@H](Cc1ccc(O)c(O)c1)C(=O)NCC(=O)O [LD-Gly TFA salt, Levodopa Glycine TFA Salt] ?
82

Quick one: % Compound Remaining Mean of N[C@@H](CSC[C@H](NC(=O)[C@@H](N)Cc1ccc(O)c(O)c1)C(=O)O)C(=O)O (single isomer, unassigned; peak 2) [LD-LA2 TFA salt, Levodopa Lanthionine Peak 2 TFA Salt] ?
100

---

Overview of recorded Papp B→A at 40 min, 10 μM for various compounds
# EXPERIMENTAL DETAILS: in vitro
# CONDITION PARAMETERS: human, Caco-2, pH 7.4, Permeability 1st
# Description: Caco-2 cells are human intestinal epithelial cells derived from a colorectal adenocarcinoma. The assays are performed in both the apical to basolateral (A-B) and the B-A direction. […] Samples are analyzed by HPLC-MS/MS using selected reaction monitoring. […] Fluorescein permeability is assessed in the A-B direction at pH 7.4 on both sides after the permeability assay with the test compound. […] The apparent permeability coefficient (Papp) of the test compound and its recovery are calculated as follows: […]
Counter-ions that a name gives are not always drawn. Non-standard residues stand in square brackets, D forms with d. Residues, ends and D or L forms follow the SMILES beside them. Dopa = N[C@@H](Cc1ccc(O)c(O)c1)C(=O)O
Use ×10⁻⁶ cm/s as the unit, but write only the number.

Observe how each entry below is paired with its result.
NC(=O)C[C@H](NC(=O)[C@@H](N)Cc1ccc(O)c(O)c1)C(=O)O [LD-Asn TFA salt, Levodopa Asparagine TFA Salt] (H-[Dopa]-Asn-OH)	0.42
NC(=O)CC[C@H](NC(=O)[C@@H](N)Cc1ccc(O)c(O)c1)C(=O)O [LD-Gln TFA salt, Levodopa Glutamine TFA Salt] (H-[Dopa]-Gln-OH)	1.01
N[C@@H](CSC[C@H](NC(=O)[C@@H](N)Cc1ccc(O)c(O)c1)C(=O)O)C(=O)O (single isomer, unassigned; peak 2) [LD-LA2 TFA salt, Levodopa Lanthionine Peak 2 TFA Salt]	13
N[C@@H](CSC[C@@H](NC(=O)[C@@H](N)Cc1ccc(O)c(O)c1)C(=O)O)C(=O)O (single isomer, unassigned; peak 1) [LD-LA1 TFA salt, Levodopa Lanthionine Peak 1 TFA Salt]	0.28

# context switch: different compound, same Papp B→A at 40 min, 10 μM
Quick one: Papp B→A at 40 min, 10 μM of N[C@@H](Cc1ccc(O)c(O)c1)C(=O)N[C@@H](Cc1c[nH]c2ccccc12)C(=O)O [LD-Trp TFA salt, Levodopa Tryptophan] (H-[Dopa]-Trp-OH) ?
0.01

---

Overview of recorded recovery at 60 min, 10 μM for various molecules
# EXPERIMENTAL DETAILS: In-vitro absorption, Caco-2 A-B permeability
# Format: in vitro ADME, human
# CONDITION PARAMETERS: human, Caco-2, pH 7.4, Caco-2 A-B; without verapamil; read-out: Percent Recovery 1st
# Experimental: Conditions may be adjusted when necessary. D denotes donor and R is receiver. […] V is the volume of the donor or receiver. The test was performed with and without verapamil, which is a permeation inhibitor, and the results are presented in Tables 22 (without verapamil) and 34 (with verapamil).
Counter-ions that a name gives are not always drawn. Non-standard residues stand in square brackets, D forms with d. Residues, ends and D or L forms follow the SMILES beside them. Dopa = N[C@@H](Cc1ccc(O)c(O)c1)C(=O)O
Kindly format the answer as number then unit.

Observe how each entry below is paired with its result.
NC(=O)C[C@H](NC(=O)[C@@H](N)Cc1ccc(O)c(O)c1)C(=O)O [LD-Asn TFA salt, Levodopa Asparagine TFA Salt] (H-[Dopa]-Asn-OH)	62%
N[C@@H](Cc1ccc(O)c(O)c1)C(=O)O [LD (control), L-3,4-dihydroxyphenylalanine, reference compound]	37%
NCCCC[C@H](NC(=O)[C@@H](N)Cc1ccc(O)c(O)c1)C(=O)O [LD-Lys TFA salt, Levodopa Lysine TFA Salt] (H-[Dopa]-Lys-OH)	21%
N[C@@H](CSC[C@H](NC(=O)[C@@H](N)Cc1ccc(O)c(O)c1)C(=O)O)C(=O)O (single isomer, unassigned; peak 2) [LD-LA2 TFA salt, Levodopa Lanthionine Peak 2 TFA Salt]	86%
N=C(N)NCCC[C@H](NC(=O)[C@@H](N)Cc1ccc(O)c(O)c1)C(=O)O [LD-Arg TFA salt, Levodopa Arginine TFA Salt]	26%
N[C@@H](CSC[C@@H](NC(=O)[C@@H](N)Cc1ccc(O)c(O)c1)C(=O)O)C(=O)O (single isomer, unassigned; peak 1) [LD-LA1 TFA salt, Levodopa Lanthionine Peak 1 TFA Salt]	82%

Quick one: recovery at 60 min, 10 μM of N[C@@H](Cc1ccc(O)c(O)c1)C(=O)N[C@@H](Cc1ccc(O)cc1)C(=O)O [LD-Tyr TFA salt, Levodopa Tyrosine TFA Salt] (H-[Dopa]-Tyr-OH) ?
45%

Quick one: recovery at 60 min, 10 μM of N[C@@H](Cc1ccc(O)c(O)c1)C(=O)NCC(=O)O [LD-Gly TFA salt, Levodopa Glycine TFA Salt] ?
65%

Quick one: recovery at 60 min, 10 μM of NC(=O)CC[C@H](NC(=O)[C@@H](N)Cc1ccc(O)c(O)c1)C(=O)O [LD-Gln TFA salt, Levodopa Glutamine TFA Salt] (H-[Dopa]-Gln-OH) ?
68%

Quick one: recovery at 60 min, 10 μM of N[C@@H](Cc1ccc(O)c(O)c1)C(=O)N[C@@H](Cc1c[nH]c2ccccc12)C(=O)O [LD-Trp TFA salt, Levodopa Tryptophan] (H-[Dopa]-Trp-OH) ?
52%

---

# EXPERIMENTAL DETAILS: In-vitro metabolism of LDAA compounds using liver microsomes
# Type: in vitro ADME, human
# CONDITION PARAMETERS: incubation time 30 minutes; 1.0E−07M
# Procedure: The stability of test compounds in pooled human liver microsomes was determined on 96-well plates, wherein the test compounds were quantified at five time points by HPLC-MS/MS analysis. […] In each assay the four reference compounds propranolol, imipramine, verapamil and terfenadine were tested, wherein the propranolol and the imipramine are known to be relatively stable, while the verapamil and the terfenadine are known to be readily metabolized in human liver microsomes. […]
Where a name gives a salt, the structure may show the parent alone. Non-standard residues stand in square brackets, D forms with d. Residues, ends and D or L forms follow the SMILES beside them. Dopa = N[C@@H](Cc1ccc(O)c(O)c1)C(=O)O
Threshold rule: % Compound Remaining 2nd greater than or equal to 90% is 1; below that, -1.

As a guide, the following entries are already answered.
N[C@@H](CSC[C@H](NC(=O)[C@@H](N)Cc1ccc(O)c(O)c1)C(=O)O)C(=O)O (single isomer, unassigned; peak 2) [LD-LA2 TFA salt, Levodopa Lanthionine Peak 2 TFA Salt]	1
N[C@@H](CSC[C@@H](NC(=O)[C@@H](N)Cc1ccc(O)c(O)c1)C(=O)O)C(=O)O (single isomer, unassigned; peak 1) [LD-LA1 TFA salt, Levodopa Lanthionine Peak 1 TFA Salt]	-1

% Compound Remaining 2nd >= 90% for NCCCC[C@H](NC(=O)[C@@H](N)Cc1ccc(O)c(O)c1)C(=O)O [LD-Lys TFA salt, Levodopa Lysine TFA Salt] (H-[Dopa]-Lys-OH) ?
-1
